experiment: Half life in AP Wistar rat at 2.1 to 4.0 mg/kg, iv and 8.1 to 8.9 mg/kg, po; assay type: ADME, organism-based; conditions: in vivo
measured.endpoint: half-life (h)

Some molecules with recorded half-life:
- molecule: "NC(=O)CN1C(=O)C(NC(=O)c2cc3cc(Cl)sc3[nH]2)Cc2ccccc21 (centres undefined)"
  half-life / h: 16
- molecule: "O=C(NC1Cc2ccccc2N(C[C@@H](O)CO)C1=O)c1cc2cc(Cl)sc2[nH]1 (mixture of isomers)"
  half-life / h: 11

[I] O=C(NC1Cc2ccccc2N(CC(CO)CO)C1=O)c1cc2cc(Cl)sc2[nH]1 (racemic)
[II] O=C(CN1C(=O)C(NC(=O)c2cc3cc(Cl)sc3[nH]2)Cc2ccccc21)NCCO (centres undefined)
Which one would you say has the larger half-life value: I , or II ? State your choice using its label.
I

----------
assay: in vitro; details: human, Caco-2
measured.endpoint: Papp B→A (×10⁻⁶ cm/s)

[A] O=C(NC1Cc2ccccc2N(C[C@@H](O)CO)C1=O)c1cc2cc(Cl)sc2[nH]1 (mixture of isomers)
[B] O=C(O)CN1C(=O)C(NC(=O)c2cc3sc(Cl)c(Cl)c3[nH]2)Cc2ccccc21 (configuration not stated)
Which one would you say has the larger Papp B→A value: A , or B ? State your choice using its label.
A

----------
assay: Clearance in AP Wistar rat at 2.1 to 4.0 mg/kg, iv and 8.1 to 8.9 mg/kg, po; format: ADME, organism-based; details: in vivo
measured.endpoint: clearance (mL/min/kg)

Some molecules with recorded clearance:
- molecule: "O=C(NC1Cc2ccccc2N(C[C@@H](O)CO)C1=O)c1cc2cc(Cl)sc2[nH]1 (mixture of isomers)"
  clearance (mL/min/kg): 2.4
- molecule: "NC(=O)CN1C(=O)C(NC(=O)c2cc3cc(Cl)sc3[nH]2)Cc2ccccc21 (centres undefined)"
  clearance (mL/min/kg): 1.2

[P] O=C(NC1Cc2ccccc2N(CC(CO)CO)C1=O)c1cc2cc(Cl)sc2[nH]1 (racemic)
[Q] O=C(CN1C(=O)C(NC(=O)c2cc3cc(Cl)sc3[nH]2)Cc2ccccc21)NCCO (centres undefined)
Which has the smaller recorded clearance, P or Q ? State your choice using its label.
P
(P: 2.5 mL/min/kg, Q: 5.1 mL/min/kg)

----------
experiment: Bioavailability in AP Wistar rat at 2.1 to 4.0 mg/kg, iv and 8.1 to 8.9 mg/kg, po; assay type: ADME, organism-based; details: in vivo, at 8.1 to 8.9 mg/kg
measured.endpoint: bioavailability (%)

- compound: "O=C(NC1Cc2ccccc2N(CC(CO)CO)C1=O)c1cc2cc(Cl)sc2[nH]1 (racemic)"
  recorded.result: 41

[1] NC(=O)CN1C(=O)C(NC(=O)c2cc3cc(Cl)sc3[nH]2)Cc2ccccc21 (centres undefined)
[2] O=C(CN1C(=O)C(NC(=O)c2cc3cc(Cl)sc3[nH]2)Cc2ccccc21)NCCO (centres undefined)
Which one would you say has the larger bioavailability value: 1 , or 2 ? State your choice using its label.
1
(1: 35%, 2: 12%)

----------
experiment: Volume of distribution at steady state in AP Wistar rat at 2.1 to 4.0 mg/kg, iv and 8.1 to 8.9 mg/kg, po; type: ADME, organism-based; conditions: in vivo, read-out: Vdss
measured.endpoint: Vd (L/kg)

- compound: "O=C(NC1Cc2ccccc2N(C[C@@H](O)CO)C1=O)c1cc2cc(Cl)sc2[nH]1 (mixture of isomers)"
  Vd [L/kg]: 1.9
- compound: "O=C(CN1C(=O)C(NC(=O)c2cc3cc(Cl)sc3[nH]2)Cc2ccccc21)NCCO (centres undefined)"
  Vd [L/kg]: 1.4

[A] NC(=O)CN1C(=O)C(NC(=O)c2cc3cc(Cl)sc3[nH]2)Cc2ccccc21 (centres undefined)
[B] O=C(NC1Cc2ccccc2N(CC(CO)CO)C1=O)c1cc2cc(Cl)sc2[nH]1 (racemic)
Which has the smaller recorded Vd, A or B ? State your choice using its label.
A
(A: 1.4 L/kg, B: 2.2 L/kg)
